assay: Biodistribution in BALB/c nude mice bearing A431-CCK2R/A431-mock xenografts; format: in vivo; conditions: female, athymic BALB/c nude, mouse, A431-mock xenograft, iv, 20 pmol, total radioactivity, xenografted BALB/c nude mice, i.v., ~20 pmol, 4 h p.i. (indium-111 or lutetium-177), mean ± SD n = 4; read-out: Uptake in A431-mock xenograft
Reported Property: tissue uptake at 4 h (%ID/g)
The figure you give is taken to be in %ID/g; do not add the unit.

# get_value(readout='tissue uptake at 4 h', item= CCCC[C@@H](C(=O)N[C@@H](CC(=O)O)C(=O)N(C)[C@@H](Cc1cccc2ccccc12)C(N)=O)N(C)C(=O)[C@H](Cc1c[nH]c2ccccc12)NC(=O)CNC(=O)[C@H](Cc1ccc(O)cc1)NC(=O)[C@H](C)NC(=O)[C@@H](CCC(=O)O)NC(=O)CN1CCN(CC(=O)O)CCN(CC(=O)O)CCN(CC(=O)O)CC1 [[^111In]In-DOTA-[(N-Me)1Nal^8]MGS5, metal not drawn] )
0.38

###

Please provide measured remaining at 4 h, 1000 pmol/mL for the entries that follow.
test: In vitro stability in human serum (intact radiopeptide by radio-HPLC); type: in vitro ADME; settings: human, fresh human serum, radiolabeled peptide, 37 °C, 4 h after incubation, n = 2
Where a SMILES comes first, the peptide text is derived from it. [ ]: non-standard residue; d: D form. The star is where a group is joined. DOTA = O=C(O)CN1CCN(CC(=O)O)CCN(CC(=O)*)CCN(CC(=O)O)CC1; NMeNle = CCCC[C@H](NC)C(=O)O
The figure you give is taken to be in %; do not add the unit.

# get_value(readout='remaining at 4 h, 1000 pmol/mL', item= CCCC[C@@H](C(=O)N[C@@H](CC(=O)O)C(=O)N(C)[C@@H](Cc1cccc2ccccc12)C(N)=O)N(C)C(=O)[C@H](Cc1c[nH]c2ccccc12)NC(=O)CNC(=O)[C@H](Cc1ccc(O)cc1)NC(=O)[C@H](C)NC(=O)[C@@H](CCC(=O)O)NC(=O)CN1CCN(CC(=O)O)CCN(CC(=O)O)CCN(CC(=O)O)CC1 [[^111In]In-DOTA-[(N-Me)1Nal^8]MGS5, metal not drawn] )
99.3

# get_value(readout='remaining at 4 h, 1000 pmol/mL', item= CCCC[C@@H](C(=O)N[C@@H](CC(=O)O)C(=O)N[C@@H](Cc1ccccc1)C(N)=O)N(C)C(=O)[C@H](Cc1c[nH]c2ccccc12)NC(=O)CNC(=O)[C@H](Cc1ccc(O)cc1)NC(=O)[C@H](C)NC(=O)[C@@H](CCC(=O)O)NC(=O)CN1CCN(CC(=O)O)CCN(CC(=O)O)CCN(CC(=O)O)CC1 [[^111In]In-DOTA-[Phe^8]MGS5, metal not drawn] ({DOTA}-[dE]AYGW[NMeNle]DF-NH2) )
92.5

###

Please provide measured LogD for the entries that follow.
assay: Distribution coefficient (LogD) in octanol/PBS; type: physicochemical; conditions: radiolabeled peptide (111In-labeled where the label names no radiometal); shake-flask octanol/PBS, 100 pmol/mL, 15 min shaking at 1500 rpm, γ-counter; mean ± SD, n = 8; read-out: LogD
Where a SMILES comes first, the peptide text is derived from it. [ ]: non-standard residue; d: D form. The star is where a group is joined. DOTA = O=C(O)CN1CCN(CC(=O)O)CCN(CC(=O)*)CCN(CC(=O)O)CC1; 1Nal = N[C@@H](Cc1cccc2ccccc12)C(=O)O; NMeNle = CCCC[C@H](NC)C(=O)O
Form: value (number only, do not type unit).

# get_value(readout='LogD', item= CCCC[C@@H](C(=O)N[C@@H](CC(=O)O)C(=O)N[C@@H](Cc1cccc2ccccc12)C(N)=O)N(C)C(=O)[C@H](Cc1c[nH]c2ccccc12)NC(=O)CNC(=O)[C@H](Cc1ccc(O)cc1)NC(=O)[C@H](C)NC(=O)[C@@H](CCCCN)NC(=O)CN1CCN(CC(=O)O)CCN(CC(=O)O)CCN(CC(=O)O)CC1 [[^111In]In-DOTA-[DLys^1]MGS5, metal not drawn] ({DOTA}-[dK]AYGW[NMeNle]D[1Nal]-NH2) )
-1.31

# get_value(readout='LogD', item= CCCC[C@@H](C(=O)N[C@@H](CC(=O)O)C(=O)N[C@@H](Cc1cccc2ccccc12)C(=O)NC)N(C)C(=O)[C@H](Cc1c[nH]c2ccccc12)NC(=O)CNC(=O)[C@H](Cc1ccc(O)cc1)NC(=O)[C@H](C)NC(=O)[C@@H](CCC(=O)O)NC(=O)CN1CCN(CC(=O)O)CCN(CC(=O)O)CCN(CC(=O)O)CC1 [[^111In]In-DOTA-MGS5[NHCH3], metal not drawn] )
-2.33

# get_value(readout='LogD', item= CCCC[C@@H](C(=O)N[C@@H](CC(=O)O)C(=O)N[C@@H](Cc1ccc2ccccc2c1)C(N)=O)N(C)C(=O)[C@H](Cc1c[nH]c2ccccc12)NC(=O)CNC(=O)[C@H](Cc1ccc(O)cc1)NC(=O)[C@H](C)NC(=O)[C@@H](CCC(=O)O)NC(=O)CN1CCN(CC(=O)O)CCN(CC(=O)O)CCN(CC(=O)O)CC1 [[^111In]In-DOTA-[2Nal^8]MGS5, metal not drawn] )
-1.71

# get_value(readout='LogD', item= CCCC[C@@H](C(=O)N[C@@H](CC(=O)O)C(=O)N[C@@H](Cc1ccccc1)C(N)=O)N(C)C(=O)[C@H](Cc1c[nH]c2ccccc12)NC(=O)CNC(=O)[C@H](Cc1ccc(O)cc1)NC(=O)[C@H](C)NC(=O)[C@@H](CCC(=O)O)NC(=O)CN1CCN(CC(=O)O)CCN(CC(=O)O)CCN(CC(=O)O)CC1 [[^111In]In-DOTA-[Phe^8]MGS5, metal not drawn] ({DOTA}-[dE]AYGW[NMeNle]DF-NH2) )
-3.19

Provenance of the data: paper PMC9959130
